Consider the following compounds and their measured selectivity ratio readings.
assay: Selectivity index, CC50 for african green monkey Vero cells to EC50 for HIV1 3B; format: toxicity, cell-based; details: read-out: Ratio CC50/EC50
Property name: selectivity ratio

* CCCCCC(=O)O[C@@H]1[C@@H](C)[C@@]2(O)[C@@H](C=C(CO)C[C@]3(O)C(=O)C(C)=C[C@@H]23)[C@@H]2C(C)(C)[C@]12OC(=O)CCCCC | 2890
* CC(=O)OCC1=C[C@H]2[C@@H]3C(C)(C)[C@]3(OC(C)=O)[C@H](OC(C)=O)[C@@H](C)[C@]2(O)[C@@H]2C=C(C)C(=O)[C@@]2(O)C1 | > 9
* CCCC(=O)O[C@@]12[C@H](O)[C@@H](C)[C@@]3(O)[C@@H](C=C(CO)C[C@]4(O)C(=O)C(C)=C[C@@H]34)[C@@H]1C2(C)C | > 3

* * *

Consider the following compounds and their measured selectivity ratio readings.
experiment: Selectivity index, CC50 for african green monkey Vero cells to EC50 for HIV1 3B; assay type: toxicity, cell-based; settings: read-out: Ratio CC50/EC50
Property name: selectivity ratio

- CC(=O)O[C@@]12C[C@@H](C)[C@@]3(O)[C@@H](C=C(CO)C[C@]4(O)C(=O)C(C)=C[C@@H]34)[C@@H]1C2(C)C: 171
- CC1=C[C@]23C(=O)[C@@H](C=C(COC(=O)c4ccccc4)[C@@H](O)[C@]2(O)[C@H]1OC(=O)c1ccccc1)[C@H]1[C@@H](C[C@H]3C)C1(C)C: 3400

* * *

assay: Selectivity index, CC50 for african green monkey Vero cells to EC50 for chikungunya virus Indian ocean strain 899; assay type: toxicity, cell-based; conditions: read-out: Ratio CC50/EC50
selectivity ratio less than 3 is YES; selectivity ratio greater than or equal to 3 is NO.

* CNc1ccccc1C(=O)O[C@@H]1[C@@H](C)[C@@]2(O)[C@@H](C=C(CO)C[C@]3(O)C(=O)C(C)=C[C@@H]23)[C@@H]2C(C)(C)[C@]12OC(C)=O | YES
* CC1=C[C@]23C(=O)[C@@H](C=C(COC(=O)c4ccccc4)[C@@H](O)[C@]2(O)[C@H]1OC(=O)c1ccccc1)[C@H]1[C@@H](C[C@H]3C)C1(C)C | NO
* CCCC(=O)O[C@@H]1[C@@H](C)[C@@]2(O)[C@@H](C=C(CO)C[C@]3(O)C(=O)C(C)=C[C@@H]23)[C@@H]2C(C)(C)[C@]12OC(=O)CCC | YES
* CCCCCCCCC(=O)O[C@@H]1[C@@H](C)[C@@]2(O)[C@@H](C=C(COC(=O)Cc3ccc(O)c(OC)c3)C[C@]3(O)C(=O)C(C)=C[C@@H]23)[C@@H]2C(C)(C)[C@]12OC(=O)CCCCCCCC | NO
* C/C=C(\C)C(=O)O[C@@H]1[C@@H](C)[C@@]2(O)[C@@H](C=C(CO)C[C@]3(O)C(=O)C(C)=C[C@@H]23)[C@@H]2C(C)(C)[C@]12OC(=O)CCCCCCCCC | NO

* * *

Consider the following compounds and their measured selectivity ratio readings.
test: Selectivity index, CC50 for african green monkey Vero cells to EC50 for HIV1 3B; type: toxicity, cell-based; settings: read-out: Ratio CC50/EC50
Property name: selectivity ratio

- CCCCCCCCCC(=O)O[C@@]12[C@H](O)[C@@H](C)[C@@]3(O)[C@@H](C=C(CO)C[C@]4(O)C(=O)C(C)=C[C@@H]34)[C@@H]1C2(C)C: 130
- CNc1ccccc1C(=O)O[C@@H]1[C@@H](C)[C@@]2(O)[C@@H](C=C(CO)C[C@]3(O)C(=O)C(C)=C[C@@H]23)[C@@H]2C(C)(C)[C@]12OC(C)=O: 749
- Cc1cn([C@H]2C[C@H](N=[N+]=[N-])[C@@H](CO)O2)c(=O)[nH]c1=O [ZIDOVUDINE]: 3520
- CCCCCCCCCCCCCC(=O)O[C@@H]1[C@@H](C)[C@@]2(O)[C@@H](C=C(CO)C[C@]3(O)C(=O)C(C)=C[C@@H]23)[C@@H]2C(C)(C)[C@]12OC(C)=O [PHORBOL MYRISTATE ACETATE]: 220
- CCCCCCCCCC(=O)O[C@@H]1[C@@H](C)[C@@]2(O)[C@@H](C=C(CO)C[C@]3(O)C(=O)C(C)=C[C@@H]23)[C@@H]2C(C)(C)[C@]12O: 4
- C/C=C(/C)C(=O)O[C@H]1C(C)=C[C@]23C(=O)[C@@H](C=C(CO)[C@@H](O)[C@]12O)[C@H]1[C@@H](C[C@H]3C)C1(C)C [INGENOL MEBUTATE]: 7850
- C=C(C)[C@]12C[C@@H](C)[C@@]34O[C@](Cc5ccccc5)(O[C@@H]1[C@@H]3C=C(COC(=O)Cc1ccc(O)c(OC)c1)C[C@]1(O)C(=O)C(C)=C[C@@H]41)O2 [RESINIFERATOXIN]: 8
- CC(=O)O[C@@]12[C@H](O)[C@@H](C)[C@@]3(O)[C@@H](C=C(CO)C[C@]4(O)C(=O)C(C)=C[C@@H]34)[C@@H]1C2(C)C: 1
- CCCCCCCCCCCCCC(=O)O[C@@]12[C@H](O)[C@@H](C)[C@@]3(O)[C@@H](C=C(CO)C[C@]4(O)C(=O)C(C)=C[C@@H]34)[C@@H]1C2(C)C: 107
- CCCC(=O)O[C@@H]1[C@@H](C)[C@@]2(O)[C@@H](C=C(CO)C[C@]3(O)C(=O)C(C)=C[C@@H]23)[C@@H]2C(C)(C)[C@]12OC(=O)CCC: 3160
- CCCCCCCCCCCCCC(=O)O[C@@H]1[C@@H](C)[C@@]2(O)[C@@H](C=C(C=O)C[C@]3(O)C(=O)C(C)=C[C@@H]23)[C@@H]2C(C)(C)[C@]12OC(C)=O: 5
- COc1cc(CC(=O)OCC2=C[C@H]3[C@@H]4C(C)(C)[C@]4(OC(C)=O)[C@H](OC(=O)Cc4ccccc4)[C@@H](C)[C@]3(O)[C@@H]3C=C(C)C(=O)[C@@]3(O)C2)ccc1O: 23
- CCCCCCCCC(=O)O[C@@H]1[C@@H](C)[C@@]2(O)[C@@H](C=C(COC(=O)Cc3ccc(O)c(OC)c3)C[C@]3(O)C(=O)C(C)=C[C@@H]23)[C@@H]2C(C)(C)[C@]12OC(=O)CCCCCCCC: 483
- C/C=C(\C)C(=O)O[C@@H]1[C@@H](C)[C@@]2(O)[C@@H](C=C(CO)C[C@]3(O)C(=O)C(C)=C[C@@H]23)[C@@H]2C(C)(C)[C@]12OC(=O)CCCCCCCCC: 600
- CC(=O)OCC1=C[C@H]2[C@@H]3C(C)(C)[C@]3(OC(C)=O)[C@H](O)[C@@H](C)[C@]2(O)[C@@H]2C=C(C)C(=O)[C@@]2(O)C1: 1
- CCCCCCCCCC(=O)O[C@@H]1[C@@H](C)[C@@]2(O)[C@@H](C=C(CO)C[C@]3(O)C(=O)C(C)=C[C@@H]23)[C@@H]2C(C)(C)[C@]12OC(=O)CCCCCCCCC: 754

* * *

system: Human immunodeficiency virus 1; test: Antiviral activity against HIV1 3B infected in MT4 cells assessed as cell viability after 5 days by MTT assay; format: functional, organism-based; conditions: Human immunodeficiency virus 1, 3B, MT4, 120 h
pEC50: −log10 of the molar value.
Quick rule: pEC50 of at least 8 means satisfied, below that means not satisfied.

• CCCCCCCCCC(=O)O[C@@H]1[C@@H](C)[C@@]2(O)[C@@H](C=C(CO)C[C@]3(O)C(=O)C(C)=C[C@@H]23)[C@@H]2C(C)(C)[C@]12OC(=O)CCCCCCCCC = satisfied
• CCCCCCCCCC(=O)O[C@@H]1[C@@H](C)[C@@]2(O)[C@@H](C=C(CO)C[C@@]3(O)C(=O)C(C)=C[C@@H]23)[C@@H]2C(C)(C)[C@]12OC(=O)CCCCCCCCC = not satisfied
• CCCCCCCCCCCCCC(=O)O[C@@H]1[C@@H](C)[C@@]2(O)[C@@H](C=C(CO)C[C@]3(O)C(=O)C(C)=C[C@@H]23)[C@@H]2C(C)(C)[C@]12OC(C)=O [PHORBOL MYRISTATE ACETATE] = satisfied
• COc1cc(CC(=O)OCC2=C[C@H]3[C@@H]4C(C)(C)[C@]4(OC(C)=O)[C@H](OC(=O)Cc4ccccc4)[C@@H](C)[C@]3(O)[C@@H]3C=C(C)C(=O)[C@@]3(O)C2)ccc1O = not satisfied
• C/C=C(\C)C(=O)O[C@@H]1[C@@H](C)[C@@]2(O)[C@@H](C=C(CO)C[C@]3(O)C(=O)C(C)=C[C@@H]23)[C@@H]2C(C)(C)[C@]12OC(=O)CCCCCCCCC = satisfied
• CCCCCCCCCCCCCC(=O)O[C@@H]1[C@@H](C)[C@@]2(O)[C@@H](C=C(C=O)C[C@]3(O)C(=O)C(C)=C[C@@H]23)[C@@H]2C(C)(C)[C@]12OC(C)=O = not satisfied
• CC1=C[C@H]2[C@@]3(O)[C@H](C)[C@@H](O)[C@]4(O)[C@H]([C@@H]3C=C(CO)C[C@]2(O)C1=O)C4(C)C = not satisfied
• CC(=O)OCC1=C[C@H]2[C@@H]3C(C)(C)[C@]3(OC(C)=O)[C@H](OC(C)=O)[C@@H](C)[C@]2(O)[C@@H]2C=C(C)C(=O)[C@@]2(O)C1 = not satisfied
